- studyTarget: human GLP-1 receptor (human, UniProt P43220 24-463)
- methodNotes: cell-based or functional assay
Bridge positions count the residues as written; N and C are the ends. Square brackets hold non-standard residues; d marks the D form. Ends that are not written are not given here. * marks the point of attachment. Acetyl(2-(4-imidazolyl)) = O=C(Cc1c[nH]cn1)*; Aib = CC(C)(N)C(=O)O
observedProperty: In vitro activity compared to native peptide (%) vs GLP-1

>>> assayvalue("{Acetyl(2-(4-imidazolyl))}-[Aib]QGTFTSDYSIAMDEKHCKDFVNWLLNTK (bridge 15-19) [Triple agonist of SEQ ID NO: 60]")
"106%"
>>> assayvalue("Y[Aib]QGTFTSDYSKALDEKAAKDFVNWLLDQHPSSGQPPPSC (bridge 16-20) [Triple agonist of SEQ ID NO: 102]")
"23.3%"
>>> assayvalue("{Acetyl(2-(4-imidazolyl))}-[Aib]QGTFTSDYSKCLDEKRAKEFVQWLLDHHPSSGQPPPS (bridge 15-19) [Triple agonist of SEQ ID NO: 74]")
"12.9%"
>>> assayvalue("Y[Aib]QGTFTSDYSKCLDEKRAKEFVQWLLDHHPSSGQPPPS (bridge 16-20) [Triple agonist of SEQ ID NO: 22]")
"20.1%"
>>> assayvalue("H[Aib]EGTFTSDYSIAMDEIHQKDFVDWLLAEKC (bridge 16-20) [Triple agonist of SEQ ID NO: 80]")
"8.1%"
